Hello, the source for this data is the kinase profiling compilation of Christmann-Franck et al. (2016), in case you need it.

biological target: NEK2 (human); test: radiometric filter-binding kinase assay, Kinase HotSpot; settings: compound 0.5 µM; ATP 10 µM
Give measured residual activity for each item. Keep answers brief.
Give bare numbers, in %.

Recorded residual activity, per entry:
>>> value_measured("Cc1nc(-c2ccccc2)c(-c2ccncc2)o1")
116
>>> value_measured("Fc1ccc(-c2nc3n(c2-c2ccncc2)CCS3)cc1")
115
>>> value_measured("COc1ccc(S(=O)(=O)N(CCO)c2ccccc2CN(C)C/C=C/c2ccc(Cl)cc2)cc1")
86.6
>>> value_measured("Ic1cccc(CSc2nnc(-c3ccncc3)o2)c1")
100
>>> value_measured("Cc1cccc(-c2nc(C(C)(C)C)[nH]c2-c2ccc3c(c2)OCO3)n1")
107

Batch request: residual activity per item, same order as input.
1. C[C@@H]1CCN(C(=O)CC#N)C[C@@H]1N(C)c1ncnc2[nH]ccc12
2. N#C/C(=C\c1ccc(O)c(O)c1)C(=O)NCc1ccccc1

1. 103
2. 102

###

target: ADRBK1 (human); assay: radiometric filter-binding kinase assay, Kinase HotSpot; settings: compound 0.5 µM; ATP 10 µM
Give measured residual activity for each item. Keep answers brief.
One number for each entry, in %.

Recorded residual activity, per entry:
>>> value_measured("CN(C)c1ccc(/C=C2\\C(=O)Nc3ccccc32)cc1")
101
>>> value_measured("O=C1C(Cl)=C(N2C(=O)CCC2=O)C(=O)c2ccccc21")
105
>>> value_measured("NC(=O)c1cccc(-c2cc(Nc3ccc(OC(F)(F)F)cc3)ncn2)c1")
96.1

Batch request: residual activity per item, same order as input.
1. CS(=O)(=O)CCNCc1ccc(-c2ccc3ncnc(Nc4ccc(OCc5cccc(F)c5)c(Cl)c4)c3c2)o1
2. c1ccc2c(-c3ccncc3)c[nH]c2c1
3. CN(C)S(=O)(=O)c1ccc2c(c1)/C(=C/c1cc3c([nH]1)CCCC3)C(=O)N2

1: 94.8; 2: 97.7; 3: 95

###

biological target: UniProtKB O94804; test: radiometric filter-binding kinase assay, Kinase HotSpot; settings: compound 0.5 µM; ATP 10 µM
Sequence (O94804 whole entry, looked up): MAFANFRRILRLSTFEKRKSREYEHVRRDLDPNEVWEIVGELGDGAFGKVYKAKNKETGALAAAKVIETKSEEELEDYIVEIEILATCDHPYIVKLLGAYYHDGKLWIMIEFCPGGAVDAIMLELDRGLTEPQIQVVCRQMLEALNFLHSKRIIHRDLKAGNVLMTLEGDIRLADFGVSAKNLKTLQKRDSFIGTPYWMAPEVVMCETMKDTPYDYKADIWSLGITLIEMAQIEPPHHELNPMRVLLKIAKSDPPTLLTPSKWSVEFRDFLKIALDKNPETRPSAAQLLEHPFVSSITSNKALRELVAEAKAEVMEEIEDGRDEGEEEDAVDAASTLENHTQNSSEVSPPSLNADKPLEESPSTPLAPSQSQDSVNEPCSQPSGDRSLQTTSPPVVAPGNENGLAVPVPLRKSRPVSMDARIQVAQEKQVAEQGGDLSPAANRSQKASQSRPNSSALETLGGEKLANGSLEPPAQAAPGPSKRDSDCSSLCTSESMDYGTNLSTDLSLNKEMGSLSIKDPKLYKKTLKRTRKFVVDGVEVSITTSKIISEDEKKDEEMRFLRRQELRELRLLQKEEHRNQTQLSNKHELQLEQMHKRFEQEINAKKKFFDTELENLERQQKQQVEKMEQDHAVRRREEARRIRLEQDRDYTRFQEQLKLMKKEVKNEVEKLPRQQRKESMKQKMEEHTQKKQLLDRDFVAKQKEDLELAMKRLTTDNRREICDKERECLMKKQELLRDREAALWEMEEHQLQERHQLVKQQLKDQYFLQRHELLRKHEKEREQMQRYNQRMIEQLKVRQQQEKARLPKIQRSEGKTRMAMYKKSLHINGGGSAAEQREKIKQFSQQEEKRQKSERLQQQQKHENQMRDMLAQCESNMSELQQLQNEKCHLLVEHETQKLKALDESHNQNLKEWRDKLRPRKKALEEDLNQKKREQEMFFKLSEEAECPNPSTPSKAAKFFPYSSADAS
reported endpoint: residual activity (%)
Give bare numbers, in %.

>>> value_measured("COc1ccc(C(=O)Nc2sc3c(c2C(N)=O)CCCC3)cc1OC")
93.9
>>> value_measured("O=C(c1cc2cc(O)ccc2[nH]1)c1cc2cc(O)ccc2[nH]1")
70.3

Now look at this one.
Query: residual activity; subject: NC(=O)c1cccc(-c2cc(Nc3ccc(OC(F)(F)F)cc3)ncn2)c1 101

###

Give measured residual activity for each item. Keep answers brief.
molecular target: ACVR1B (human); assay: radiometric filter-binding kinase assay, Kinase HotSpot; conditions: compound 0.5 µM; ATP 10 µM
Give bare numbers, in %.

Batch request: residual activity per item, same order as input.
1. COc1ccc(Cl)cc1NC(=O)Nc1cc(C)nc2ccccc12
2. COc1cc2ncnc(Nc3ccc(Oc4ccccc4)cc3)c2cc1OC
3. N#Cc1c[nH]c2c[nH]/c(=N\Cc3cccnc3)cc2/c1=N\c1ccc(F)c(Cl)c1
4. Ic1cccc(CSc2nnc(-c3ccncc3)o2)c1
5. O=C1Nc2ccc(Br)cc2/C1=C\c1cc2c([nH]1)CCCC2
6. O=C1C(Cl)=C(N2C(=O)CCC2=O)C(=O)c2ccccc21

1. 97.4
2. 97.5
3. 99
4. 102
5. 99
6. 106
